- TEST DESCRIPTION: Plasma pharmacokinetics of tipifarnib after oral, 2-hour i.v. and continuous i.v. administration in cancer patients
- Type: in vivo, human
- DETAILS: human, plasma; oral 200 mg b.i.d., Day 4, n=24; read-out: arithmetic mean Cmax (±SD)
EXPERIMENTAL ENDPOINT: Cmax (ng/mL)

- Cn1cncc1[C@@](N)(c1ccc(Cl)cc1)c1ccc2c(c1)c(-c1cccc(Cl)c1)cc(=O)n2C: 994

* * *

- TEST DESCRIPTION: Plasma pharmacokinetics of tipifarnib after oral, 2-hour i.v. and continuous i.v. administration in cancer patients
- Assay type: in vivo, human
- DETAILS: human, plasma, po, 200 mg, oral 200 mg b.i.d., 29 subjects; read-out: range of tmax
EXPERIMENTAL ENDPOINT: Tmax

* Cn1cncc1[C@@](N)(c1ccc(Cl)cc1)c1ccc2c(c1)c(-c1cccc(Cl)c1)cc(=O)n2C [tipifarnib] | 0.5 to 3 h

* * *

- Test system: plasma proteins
- TEST DESCRIPTION: In vitro plasma protein binding, plasma from 5 healthy men
- Type: in vitro ADME, human
- DETAILS: male, human, pH 7.17; blank plasma fortified with 14C-tipifarnib at 1000 ng/mL; read-out: plasma protein binding (bound) (converted)
EXPERIMENTAL ENDPOINT: fraction unbound at 4 h, 1000 ng/mL

* Cn1cncc1[C@@](N)(c1ccc(Cl)cc1)c1ccc2c(c1)c(-c1cccc(Cl)c1)cc(=O)n2C | 0.0078

* * *

- TEST DESCRIPTION: Plasma pharmacokinetics of tipifarnib after oral, 2-hour i.v. and continuous i.v. administration in cancer patients
- Assay type: in vivo, human
- DETAILS: human, plasma, oral, 200 mg, oral versus 2-hour i.v., dose-normalized AUC0-10h, fed; read-out: mean absolute bioavailability of the oral tablet
EXPERIMENTAL ENDPOINT: bioavailability (%)

• Cn1cncc1[C@@](N)(c1ccc(Cl)cc1)c1ccc2c(c1)c(-c1cccc(Cl)c1)cc(=O)n2C [tipifarnib] = 46.3

* * *

- TEST DESCRIPTION: Plasma pharmacokinetics of tipifarnib after oral, 2-hour i.v. and continuous i.v. administration in cancer patients
- Type: in vivo, human
- DETAILS: human, plasma; oral 200 mg b.i.d., 2-hour i.v. 100 mg b.i.d., continuous i.v. 200 mg/day; read-out: range of mean AUC0-10h values across the 3 treatments
EXPERIMENTAL ENDPOINT: AUC(0-t)

* Cn1cncc1[C@@](N)(c1ccc(Cl)cc1)c1ccc2c(c1)c(-c1cccc(Cl)c1)cc(=O)n2C | 3990 to 4490 ng·h/mL

* * *

- TEST DESCRIPTION: Plasma pharmacokinetics of tipifarnib after oral, 2-hour i.v. and continuous i.v. administration in cancer patients
- Format: in vivo, human
- DETAILS: human, plasma, po, 200 mg, oral 200 mg b.i.d. for 4 days; read-out: time of maximum plasma concentration (tmax)
EXPERIMENTAL ENDPOINT: Tmax

• Cn1cncc1[C@@](N)(c1ccc(Cl)cc1)c1ccc2c(c1)c(-c1cccc(Cl)c1)cc(=O)n2C = ~2 h

* * *

- TEST DESCRIPTION: Plasma pharmacokinetics of tipifarnib after oral, 2-hour i.v. and continuous i.v. administration in cancer patients
- Assay type: in vivo, human
- DETAILS: human, plasma, oral, 200 mg, oral versus continuous intravenous infusion, dose-normalized AUC0-10h, fed; read-out: mean absolute bioavailability of the oral tablet
EXPERIMENTAL ENDPOINT: bioavailability

- Cn1cncc1[C@@](N)(c1ccc(Cl)cc1)c1ccc2c(c1)c(-c1cccc(Cl)c1)cc(=O)n2C [tipifarnib]: 40.9%
